Experiment: physchem
Readout Kind: chromatographic logP
API doc: respond with a numeric literal and nothing else, no unit.

Request: What value of chromatographic logP has been recorded for this entry: "C=C(C)[C@@H]1CC[C@]2(C(=O)O)CC[C@]3(C)[C@H](CC[C@@H]4[C@@]5(C)CCC(=O)C(C)(C)[C@@H]5CC[C@]43C)[C@@H]12"
Response: 6.77

====

Test: Experimental lipophilicity by reversed-phase thin-layer chromatography (RP-TLC)
Settings: RP-TLC, mobile phase acetone:buffer Tris
Please respond with reported R M0 for every item in the list.
Reply briefly: the number, and no unit.

Request: What does the data say about its R M0? Entry: "CC(=O)c1ccc(Br)cc1"
Response: 1.82

Request: Same again, this time with C#CC(C)(C)NC(=O)[C@]12CC[C@@H](C(=C)C)C1C1CCC3[C@@]4(C)CCC(=O)C(C)(C)C4CC[C@@]3(C)[C@]1(C)CC2 (stereo partly drawn)
Response: 5.02

Request: Consider next the molecule "C[C@]12C=CC(=O)C=C1CC[C@@H]1[C@@H]2C(=O)C[C@@]2(C)[C@H]1CC[C@]2(O)C(=O)CO" in the same way.
Response: 0.72

Request: Now consider C#CCN(C)C(=O)[C@]12CC[C@@H](C(=C)C)C1C1CCC3[C@@]4(C)CCC(=O)C(C)(C)C4CC[C@@]3(C)[C@]1(C)CC2 (stereo partly drawn) .
Response: 5.83

Request: CC(=O)Nc1ccccc1 [acetanilide] ?
Response: 0.57

Request: // repeat for C#CC1(NC(=O)[C@]23CC[C@@H](C(=C)C)C2C2CCC4[C@@]5(C)CCC(=O)C(C)(C)C5CC[C@@]4(C)[C@]2(C)CC3)CCCCC1 (stereo partly drawn) and report
Response: 6.15
